System: A498 renal
Experiment: NCI-60 one-dose screen, 48 h (100 = growth as untreated, 0 = no growth, -100 = all killed)
Details: 10 µM unless noted
Protocol: Growth inhibition of the A498 human tumor cell line is measured as a screen for anti-cancer activity. Cells are grown in 96 well plates and exposed to the test compound for 48 hours. Compounds are tested at a single concentration, which is 10^-5 M for most compounds. The reported endpoint is percent growth (GI% or GIPRCNT), where numbers from 0 - 100% represent growth inhibition, and numbers from -100% - 0 represent cell death. For example, a value of 40 represents 60% growth inhibition. […]
About 83,000 compounds went through this panel and 20% of them were active in at least one assay; those are over-represented in the sample as a whole.
Consider the following molecules; for each one, report its growth.
Report the value in % with no unit label.

Lookup result for "O=S(=O)(/N=C1C=C/C(=N\S(=O)(=O)c2ccccc2)c2ccccc2\1)c1ccccc1" ; measured growth: 117

Lookup result for COc1cc(/C=C/C(=O)C2=C(/C=C/c3ccc(O)c(OC)c3)NC(=O)NC2c2ccc(O)c(OC)c2)ccc1O (stereo unspecified) ; measured growth: 101

Lookup result for "NC(=O)c1cc(I)ccc1NC(=O)COc1ccc(Cl)cc1Cl" ; measured growth: 73.9

Lookup result for "O=C1C(N2CCOCC2)=Cc2cccc3cccc1c23" ; measured growth: 84.3

Lookup result for "CCCN(CCC)c1ccc(/C=C/c2ccc3cc(OCC)ccc3n2)cc1" ; measured growth: 64.6

Lookup result for CC(=O)N(CC(O)CO)c1c(I)c(C(=O)NCCO)c(I)c(C(=O)NCC(O)CO)c1I (stereo unspecified) ; measured growth: 110

Lookup result for "Clc1ccc(Nc2nc(Nc3ccccc3)nc(Nc3ccc(-c4cc(-c5ccc(Cl)cc5)on4)cc3)n2)cc1" ; measured growth: 43.9

Lookup result for "ONc1nc(NO)c2[nH]cnc2n1" ; measured growth: 78.7

Lookup result for "O=c1c2c(=NCCN3CCCC3)cc3c(=O)n(CCCN4CCOCC4)c(=O)c4c(-c5ccc(CN6CCCC6)cc5)cc(c(O)n1CCCN1CCOCC1)c2c4-3" ; measured growth: -85

Lookup result for "COc1cccc(Nc2nc(NCCO)c3ccccc3n2)c1" ; measured growth: 43.8

Lookup result for "Cc1nc(NN)c([N+](=O)[O-])c(NN)n1" ; measured growth: 142

Lookup result for "Cc1nn(-c2ccccc2)c2nc3nc4c(c(N)c3c(-c3ccc(Cl)cc3)c12)CCCC4" ; measured growth: 97.2

Lookup result for COC1(OC)C2(Cl)C=C(c3ccccc3)C1(Cl)C(Cl)=C2Cl (stereo unspecified) ; measured growth: 105

Lookup result for "COc1ccc(Cn2c(Br)c3c(c2-c2cc(OC)c(OC)c(OC)c2)CCc2sc(N)nc2-3)cc1" ; measured growth: -15.8

Lookup result for "FC(F)(F)c1ccc2c(c1)n1cnnc1c1nncn21" ; measured growth: 94.7

Lookup result for "COC(=O)c1ccc(C(=O)Nc2ccccc2N)cc1" ; measured growth: 80.5

Lookup result for CCC12CCC3c4ccc(O)cc4CCC3C1CC(O)C2O (stereo unspecified) ; measured growth: 67.1

Lookup result for "COc1cc(C(=O)/C=C/c2c(-c3cccs3)nc3sccn23)cc(OC)c1OC" ; measured growth: -26.3

Lookup result for O=C1NC(=O)C2(CCCC2C(=O)O)N1 (stereo unspecified) ; measured growth: 115

Lookup result for "O=C1/C(=C/c2ccccc2F)CNC/C1=C\c1ccccc1F" ; measured growth: -38.8

Lookup result for "O=[N+]([O-])c1ccc2nc(N/N=C/c3ccc(O)cc3)sc2c1" ; measured growth: 91.5

----------
Tested on: 786-0 renal
Test: NCI-60 one-dose screen, 48 h (100 = growth as untreated, 0 = no growth, -100 = all killed)
Conditions: 10 µM unless noted
Compounds without any hit were thinned out: in the full panel of roughly 83,000, 20% have a hit. Active and inactive are the calls of the source. How the source made its calls: active means growth percent below 10; inactive means the rest.
EXPERIMENTAL_READOUT: growth

Lookup result for "CC(C)OC1=C(Cl)C(=O)c2ccccc2C1=O" ; measured growth: 108% (inactive)

Lookup result for "O=c1[nH]c(=S)c2c(n1CCCO)CCC2" ; measured growth: 102% (inactive)

Lookup result for "O=C1/C(=C/c2ccc([N+](=O)[O-])cc2)Oc2ccc(O)cc21" ; measured growth: 96% (inactive)

Lookup result for "Cc1ccccc1-n1nnc(C(=O)Nc2nc(-c3ccccc3)c(-c3ccccc3)s2)c1C" ; measured growth: 87.4% [50 µM] (inactive)

Lookup result for "COC(=O)c1c2c(c(C)[n+]([O-])c1C)C(=O)C=C(NCc1ccc(F)cc1)C2=O" ; measured growth: 5.86% (active)

Lookup result for "CSc1nnc(-c2sc3nnc(-c4ccccc4)c(-c4ccccc4)c3c2O)o1" ; measured growth: 88.7% (inactive)

Lookup result for "CN1CCN(CCCn2c3c(sc4ncccc43)c(=O)n3nnc(-c4ccccc4)c23)CC1" ; measured growth: 95.4% (inactive)

Lookup result for "COc1cc(CNCCN2C(=O)c3ccc4c5c(ccc(c35)C2=O)C(=O)N(CCNCc2cc(OC)c(OC)c(OC)c2)C4=O)cc(OC)c1OC" ; measured growth: -93.6% (active)

Lookup result for "CCCCNNC(=O)c1ccc(Br)cc1" ; measured growth: 79% (inactive)

Lookup result for "COc1ccc(/C=C2\CN(Cc3cn(CCCNc4ccnc5cc(Cl)ccc45)nn3)C/C(=C\c3ccc(OC)c(OC)c3)C2=O)cc1OC" ; measured growth: -1.83% (active)

----------
Tested on: U251 CNS
Assay: NCI-60 one-dose screen, 48 h
Conditions: 10 µM unless noted
The panel holds about 83,000 compounds, 20% with a hit somewhere; the sample as a whole holds those more often. The source made the active and inactive calls. The calls were made as follows: active = growth percent below 10; inactive = the rest.
Write down the outcome that applies. Available outcomes: true (1) for active, false (0) for inactive

q: Query: recorded result category for "COc1cccc(Nc2nc(NCCO)c3ccccc3n2)c1" in this test
a: false (0)

q: Query: recorded result category for "Cc1nc2cc(Nc3nc(NCCO)nc(Nc4ccc(F)cc4)n3)ccc2n1Cc1ccccc1" in this test
a: false (0)

q: Query: recorded result category for "Oc1cccc(Nc2nc(-c3ccccn3)cs2)c1" in this test
a: false (0)

q: Query: recorded result category for "COc1ccc(S(=O)(=O)c2ccc(C(N)=O)cc2)cc1NC(=O)c1[nH]c(C)c2c1CCCCC2=O" in this test
a: false (0)

q: Query: recorded result category for "COc1ccc(-c2[nH]ncc2Nc2cc(OC)c(OC)c(OC)c2)cc1" in this test
a: false (0)

q: Query: recorded result category for "CCCCNNC(=O)c1ccc(Br)cc1" in this test
a: false (0)

q: Query: recorded result category for "CN(C)C(=S)SCN1C(=O)c2ccc([N+](=O)[O-])cc2S1(=O)=O" in this test
a: false (0)

q: Query: recorded result category for "O=C(NCc1ccco1)C1CCN(S(=O)(=O)c2ccc(Cl)cc2)CC1" in this test
a: false (0)

q: Query: recorded result category for "O=C(Nc1ccccc1O)c1ccc(NS(=O)(=O)c2cccc3cccnc23)cc1" in this test
a: false (0)

q: Query: recorded result category for Cc1ccc(S(=O)(=O)N2CCc3ccc(O)c4c3C2Cc2cc(Cl)ccc2-4)cc1 (configuration not stated) in this test
a: false (0)

q: Query: recorded result category for "COC(=O)c1c2c(c(C)[n+]([O-])c1C)C(=O)C=C(NCc1cccc(Cl)c1)C2=O" in this test
a: true (1)

q: Query: recorded result category for "CCCCCCCCCCCCCCn1c2ccccc2c2c3c(c4c5cc(OC)ccc5oc4c21)C(=O)NC3=O" in this test
a: false (0)

q: Query: recorded result category for "O=C(COc1ccc(/C=C2\CSc3ccccc3C2=O)cc1)c1ccc(Cl)cc1" in this test
a: false (0)

q: Query: recorded result category for "O=C(Nc1ccccc1)Oc1cccc2cccnc12" in this test
a: false (0)

q: Query: recorded result category for "Nc1nc(-c2ccnc(Cl)c2)nn1-c1nc2ccccc2s1" in this test
a: false (0)

q: Query: recorded result category for "NC(=O)c1cccc(-n2ccc3cc(NC(=O)Nc4ccc(Cl)c(Cl)c4)ccc32)n1" in this test
a: false (0)

q: Query: recorded result category for "O=c1ccc2ccccc2o1" in this test
a: false (0)

q: Query: recorded result category for CCC(C)Oc1cc(/C=N/NC(=O)c2cnn3c2NC(c2ccccc2)C3)ccc1OC (configuration not stated) in this test
a: false (0)

q: Query: recorded result category for "CN1CCN(c2ccc3nc(-c4ccc5nc(-c6ccc(C(F)(F)F)cc6)[nH]c5c4)[nH]c3c2)CC1" in this test
a: false (0)

q: Query: recorded result category for "COc1cccc2c(=O)c3c(sc12)c(NCCN(C)C)nc1ccccc13" in this test
a: true (1)

q: Query: recorded result category for "Nc1ccccc1-c1n[nH]c(=O)[nH]c1=O" in this test
a: false (0)

q: Query: recorded result category for "Cc1nc2ccc(Cl)cc2n1C" in this test
a: false (0)

Cited source for all entries: PubChem BioAssay (NCI)
